# Tested on: NCI-H23 lung
# ASSAY: NCI-60 one-dose screen, 48 h (100 = growth as untreated, 0 = no growth, -100 = all killed)
# PARTICULARS: 10 µM unless noted
Compounds without any hit were thinned out: in the full panel of roughly 83,000, 20% have a hit. Active and inactive are the calls of the source. Rule for the calls: active = growth percent below 10; inactive = the rest.
Entries and their measured growth follow.
METRIC: growth

chemical_structure=COC(=O)C1=C(C(=O)ON)[C@@H]2C=C[C@@]1([C@@H](Cc1ccccc1)Nc1ccccc1)O2 assayed_system="NCI-H23 lung" result="90.6% (inactive)"
chemical_structure=CC(=O)Nc1ccc(-n2cnc3cc(-c4ccc(OCCN5CCCCC5)cc4)ccc32)cc1 assayed_system="NCI-H23 lung" result="73.2% (inactive)"
chemical_structure=O=C1Nc2ccccc2/C1=C\c1c(-c2ccc(F)cc2)nc2ccccn12 assayed_system="NCI-H23 lung" result="49.1% (inactive)"

----------
# Tested on: MCF7 breast
# ASSAY: NCI-60 one-dose screen, 48 h
# PARTICULARS: 10 µM unless noted
The panel holds about 83,000 compounds, 20% with a hit somewhere; the sample as a whole holds those more often. Calls of active or inactive are those of the source. Rule for the calls: active = growth percent below 10; inactive = the rest.
Outcomes: Yes for active, No for inactive

chemical_structure=CCc1ccc(CNc2ccc(N3CCOCC3)c(C(=O)O)c2)cc1 cat=No
chemical_structure=O=C(CCN1CCCC1)Nc1ccc2c(NCCCc3ccccc3)c3ccccc3nc2c1 cat=Yes
chemical_structure=COc1ccc(/C=C/c2nc(Nc3ccc(S(=O)(=O)Nc4nc(C)cc(C)n4)cc3)c3ccccc3n2)cc1 cat=No
chemical_structure=O=S(=O)(NCCCNc1nccc(-c2c(-c3cccc(F)c3)nc3sccn23)n1)c1cccc(F)c1 cat=No
chemical_structure=O=C(N/N=C/c1cc2ccccc2n2nnnc12)Nc1ccccc1 cat=No
chemical_structure=CC(=O)c1cc2c(N)c(C(=O)Nc3cccc4ccncc34)sc2nc1C cat=No
chemical_structure=COc1cc(CC(=O)c2ccc(O)c(OC)c2)ccc1O cat=No

----------
# Test system: A498 renal
# ASSAY: NCI-60 one-dose screen, 48 h (100 = growth as untreated, 0 = no growth, -100 = all killed)
# PARTICULARS: 10 µM unless noted
About 83,000 compounds went through this panel and 20% of them were active in at least one assay; those are over-represented in the sample as a whole. Calls of active or inactive are those of the source. How the source made its calls: active means growth percent below 10; inactive means the rest.
Catalogue of molecules with associated growth
METRIC: growth

molecule=Cn1c(-c2c(N)n(CCCN3CCOCC3)c3nc(C#N)c(C#N)nc23)nc2ccccc21 metric=growth result="90.6% (inactive)"
molecule=CN(C)CCC(=O)c1ccc([N+](=O)[O-])cc1 metric=growth result="88.4% (inactive)"
molecule=COc1ccc(C(=O)c2cc(OC)c(OC)c(OC)c2)cc1O metric=growth result="75% (inactive)"
molecule=O=C1CC(=O)OC(c2ccc([N+](=O)[O-])cc2)O1 metric=growth result="104% (inactive)"
molecule="COc1ccc(-c2nc(S(=O)(=O)c3ccccc3)c(S(=O)CC(=O)N3CCC(C)CC3)o2)cc1 (configuration not stated)" metric=growth result="83.8% (inactive)"
molecule=COc1cc(/C=C2\COc3ccc(-c4ccccc4)cc3C2=O)cc(OC)c1 metric=growth result="95.5% (inactive)"
molecule="Cc1ccc(C(=O)/C(=C\\c2ccc([N+](=O)[O-])cc2)S(=O)Cc2ccc(Cl)cc2)cc1 (configuration not stated)" metric=growth result="77.6% (inactive)"
molecule=N#C/C(=C\c1ccc(C(F)(F)F)cc1)c1cc2ccccc2[nH]1 metric=growth result="90.3% (inactive)"
molecule=Oc1ccc(OCCOc2ccc(O)cc2)cc1 metric=growth result="100% (inactive)"
molecule="CC(C)(C)[Si](C)(C)OC1[C@@H](O[Si](C)(C)C(C)(C)C)[C@@H](CNC(=O)NC(=O)CCl)O[C@H]1n1cnc2c(NC(=O)Nc3ccccc3)ncnc21 (some centres not stated)" metric=growth result="43.5% (inactive)"
molecule=Cc1c(C)c([N+](=O)[O-])c(C)c([N+](=O)[O-])c1C metric=growth result="94.3% (inactive)"
molecule="C/C=C(\\C)C(=O)NC1=CC[C@@]2(C)C(=CCC3C2CC[C@@]2(C)C3CC[C@@H]2C(C)N(C)C)C1=O (some centres not stated)" metric=growth result="71.2% (inactive)"
